Values compiled from paper PMC6688997.

molecular target: TRKA (NTRK1) (Homo sapiens, UniProt P04629); construct: purchased Carna Biosciences, Inc. (Kobe, Japan); assay run by the vendor; assay: Kinase assay, ATP Km; assay type: biochemical; settings: ATP: Km; read-out: IC50
Sequence (P04629 33-796): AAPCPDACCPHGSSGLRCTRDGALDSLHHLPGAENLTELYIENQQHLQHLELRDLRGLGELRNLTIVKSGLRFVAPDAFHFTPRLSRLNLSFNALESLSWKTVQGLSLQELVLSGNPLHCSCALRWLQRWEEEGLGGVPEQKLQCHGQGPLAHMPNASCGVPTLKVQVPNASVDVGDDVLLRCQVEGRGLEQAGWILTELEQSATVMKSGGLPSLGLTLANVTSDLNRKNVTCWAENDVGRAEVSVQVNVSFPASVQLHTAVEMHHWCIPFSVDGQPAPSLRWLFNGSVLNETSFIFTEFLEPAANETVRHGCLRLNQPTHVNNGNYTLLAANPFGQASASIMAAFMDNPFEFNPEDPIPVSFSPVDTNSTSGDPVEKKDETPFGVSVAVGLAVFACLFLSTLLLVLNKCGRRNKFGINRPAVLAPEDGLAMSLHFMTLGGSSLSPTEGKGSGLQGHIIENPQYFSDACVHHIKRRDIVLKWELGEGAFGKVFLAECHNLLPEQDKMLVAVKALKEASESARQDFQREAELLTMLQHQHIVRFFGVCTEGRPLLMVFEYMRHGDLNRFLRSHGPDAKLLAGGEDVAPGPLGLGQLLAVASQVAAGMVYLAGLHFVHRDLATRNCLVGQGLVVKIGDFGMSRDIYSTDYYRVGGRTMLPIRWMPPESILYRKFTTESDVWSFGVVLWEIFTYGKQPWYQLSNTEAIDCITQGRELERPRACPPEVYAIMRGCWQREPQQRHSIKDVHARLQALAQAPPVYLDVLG
MEASUREMENT LABEL: IC50 (nM)

compound="C[C@@H](N)COc1ccc(-c2cnc3ccc(N[C@H](C)c4cccc(F)c4)nn23)cc1.O=C(O)CCCCC(=O)O [DS-6051b]" measured_on="TRKA (NTRK1) (Homo sapiens, UniProt P04629)" unit_spec=nM value_measured=0.622
